Target: recombinant human α1D receptor (Homo sapiens)
Construct: expressed in transfected cells; host or cells: human embryonic kidney 293 cells (HEK93 [sic]), membranes
Assay: Adrenergic α1D selectivity assay, [3H]-prazosin binding to membranes
Settings: inhibition of [3H]-prazosin binding, HEK cell membranes, read-out: α1 bind pIC50 (converted)
Where a name gives a salt, the structure may show the parent alone.
REPORTED_ENDPOINT: IC50 (µM)

Solved cases (8 shown):
O=C(CCNCCc1cccc(F)c1)N(CCNCCc1ccc(O)c2[nH]c(=O)ccc12)C1CCCCC1 [Example 19]
0.2
O=C(CCNCCc1cccc(Cl)c1)N(CCNCCc1ccc(O)c2[nH]c(=O)ccc12)C1CCCCCC1 [Example 3, bis(trifluoroacetate)]
0.0794
Cc1ccc(F)c(CCNCCC(=O)N(CCNCCc2ccc(O)c3c2OCC(=O)N3)C2CCCCC2)c1 [Example 33, bis(trifluoroacetate)]
0.0794
O=C1COc2c(CCNCCN(C(=O)CCOCCc3ccccc3)C3CCCCC3)ccc(O)c2N1 [Example 70, trifluoroacetate]
1.58
O=C1COc2c(CCNCCN(C(=O)CCNCCc3cc(F)ccc3F)C3CCCCCC3)ccc(O)c2N1 [Example 64, bis(trifluoroacetate)]
0.0631
O=C1COc2c(CCNCCN(C(=O)CCNCCc3cccc(Cl)c3F)C3CCCCC3)ccc(O)c2N1 [Example 39, bis(trifluoroacetate)]
0.501
O=C1COc2c(CCNCCN(C(=O)CCNCCc3cc(F)cc(Cl)c3)C3CCCCCC3)ccc(O)c2N1 [Example 66, bis(trifluoroacetate)]
0.398
O=C(CCNCCc1cc(F)ccc1F)N(CCNCCc1ccc(O)c2[nH]c(=O)ccc12)C1CCCCC1 [Example 17, bis(trifluoroacetate)]
0.251

P: O=C1COc2c(CCNCCN(C(=O)CCNCCc3ccccc3Cl)C3CCCCC3)ccc(O)c2N1 [Example 28, bis(trifluoroacetate)]
Q: O=C1COc2c(CCNCCN(C(=O)CCOCCc3cccc(Cl)c3)C3CCCCC3)ccc(O)c2N1 [Example 77, trifluoroacetate]
# query: argmin of IC50 over P and Q Give the chosen item's label as your response.
P

P: O=C1COc2c(CCNCCN(C(=O)CCNCCc3ccc(Cl)cc3)C3CCCCC3)ccc(O)c2N1 [Example 32, bis(trifluoroacetate)]
Q: O=CNc1cc(CCNCCN(C(=O)CCNCCc2ccccc2)C2CCCCC2)ccc1O [Example 21]
When P and Q are compared, which has the higher number for IC50? Give the chosen item's label as your response.
P
(P: 0.251 µM, Q: 0.0794 µM)

* * *

Molecular target: recombinant human α1D receptor (Homo sapiens, UniProt P25100)
Construct: expressed in transfected cells; host or cells: human embryonic kidney 293 cells (HEK93 [sic]), membranes
Sequence (P25100 whole entry): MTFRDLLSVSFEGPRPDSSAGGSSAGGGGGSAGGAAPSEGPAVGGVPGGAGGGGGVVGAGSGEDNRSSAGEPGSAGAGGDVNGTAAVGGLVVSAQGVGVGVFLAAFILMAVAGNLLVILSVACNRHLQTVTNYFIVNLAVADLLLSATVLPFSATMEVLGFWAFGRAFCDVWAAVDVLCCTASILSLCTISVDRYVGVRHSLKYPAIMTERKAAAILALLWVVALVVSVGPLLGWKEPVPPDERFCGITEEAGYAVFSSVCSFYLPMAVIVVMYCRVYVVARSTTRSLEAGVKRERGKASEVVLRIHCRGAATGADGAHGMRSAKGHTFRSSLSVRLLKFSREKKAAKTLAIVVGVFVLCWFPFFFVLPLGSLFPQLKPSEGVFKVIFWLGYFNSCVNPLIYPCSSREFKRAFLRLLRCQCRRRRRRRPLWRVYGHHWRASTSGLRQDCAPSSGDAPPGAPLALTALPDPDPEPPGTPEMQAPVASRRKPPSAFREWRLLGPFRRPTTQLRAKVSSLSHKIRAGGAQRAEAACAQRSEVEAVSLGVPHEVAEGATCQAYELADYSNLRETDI
Assay: Adrenergic α1D selectivity assay, [3H]-prazosin binding to membranes
Details: inhibition of [3H]-prazosin binding, HEK cell membranes, read-out: α1 bind pIC50 (converted)
REPORTED_ENDPOINT: IC50 (nM)

A: CCCC[C@@H](C)N(CCNCCc1ccc(O)c2c1OCC(=O)N2)C(=O)CCNCCc1ccccc1Cl [Example 46, bis(trifluoroacetate)]
B: Cl.O=C(CCOCCc1ccc(F)cc1)N(CCNCCc1ccc(O)c2[nH]c(=O)ccc12)C1CCCCC1 [Example 71, hydrochloride]
C: O=C1COc2c(CCNCCN(C(=O)CCNCCc3cccc(Cl)c3)C3CCCCC3)ccc(O)c2N1 [Example 27, bis(trifluoroacetate)]
D: O=C1COc2c(CCNCCN(C(=O)CCNCCc3cc(F)cc(Cl)c3)C3CCCCC3)ccc(O)c2N1 [Example 41, (trifluoroacetate)]
// smallest IC50 at index 0, largest at the end Form entry: ranked labels (order as requested).
A, C, D, B
(A: 79.4 nM, C: 126 nM, D: 251 nM, B: 631 nM)

* * *

Target: recombinant human Dopamine Subtype D2s receptors (Homo sapiens, UniProt P14416)
Construct: purchased Perkin Elmer
Sequence (P14416 1-414 isoform P14416-2): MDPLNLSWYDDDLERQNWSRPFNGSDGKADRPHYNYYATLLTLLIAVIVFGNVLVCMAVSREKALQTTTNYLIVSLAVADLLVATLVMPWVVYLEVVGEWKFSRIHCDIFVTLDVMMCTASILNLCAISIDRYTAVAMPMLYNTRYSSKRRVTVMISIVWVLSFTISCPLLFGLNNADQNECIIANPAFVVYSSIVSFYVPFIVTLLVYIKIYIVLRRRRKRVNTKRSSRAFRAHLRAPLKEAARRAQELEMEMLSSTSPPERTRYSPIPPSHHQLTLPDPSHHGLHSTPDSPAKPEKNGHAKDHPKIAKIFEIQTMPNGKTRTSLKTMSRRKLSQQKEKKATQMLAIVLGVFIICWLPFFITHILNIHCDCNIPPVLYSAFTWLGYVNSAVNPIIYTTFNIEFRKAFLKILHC
Assay: Dopamine D2 selectivity assay, [3H]-spiperone binding to membranes
Conditions: inhibition of [3H]-spiperone binding, read-out: D2 bind pIC50 (converted)
Counter-ions that a name gives are not always drawn.
REPORTED_ENDPOINT: IC50 (nM)

O=C1COc2c(CCNCCN(C(=O)CCOCCc3cccc(Cl)c3)C3CCCCC3)ccc(O)c2N1 [Example 77, trifluoroacetate]
2000
O=C1COc2c(CCNCCN(C(=O)CCNCCc3cc(F)cc(F)c3)C3CCCCCC3)ccc(O)c2N1 [Example 65, bis(trifluoroacetate)]
126

P: Cl.O=C(CCOCCc1cccc(F)c1)N(CCNCCc1ccc(O)c2[nH]c(=O)ccc12)C1CCCCC1 [Example 72, hydrochloride]
Q: O=C1COc2c(CCNCCN(C(=O)CCNCCc3cc(F)cc(F)c3)C3CCCCC3)ccc(O)c2N1 [Example 35, bis(trifluoroacetate)]
# query: argmin of IC50 over P and Q Give the chosen item's label as your response.
Q
(Q: 251 nM, P: 3980 nM)

* * *

Biological target: Adrenergic β2 (Homo sapiens, UniProt P07550)
Construct: Adherent H292 cells were removed from tissue culture flasks; endogenous in cells; host or cells: H292 cells
Sequence (P07550 whole entry): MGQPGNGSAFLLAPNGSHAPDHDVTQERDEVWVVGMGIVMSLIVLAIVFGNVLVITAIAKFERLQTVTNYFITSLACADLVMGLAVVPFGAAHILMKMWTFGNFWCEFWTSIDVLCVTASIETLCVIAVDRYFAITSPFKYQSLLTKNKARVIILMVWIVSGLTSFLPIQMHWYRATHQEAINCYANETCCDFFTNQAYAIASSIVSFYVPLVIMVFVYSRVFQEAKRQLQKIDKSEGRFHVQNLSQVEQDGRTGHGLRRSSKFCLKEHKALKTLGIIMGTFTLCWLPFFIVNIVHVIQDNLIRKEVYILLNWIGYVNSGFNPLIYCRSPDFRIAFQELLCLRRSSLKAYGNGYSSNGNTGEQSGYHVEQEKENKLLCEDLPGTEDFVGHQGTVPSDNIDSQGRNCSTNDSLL
Assay: Adrenergic β2 mediated cAMP production in H292 cells (AlphaScreen cAMP detection)
Assay type: cell-based
Conditions: cAMP production, 60 minutes at room temperature, 300 μM rolipram, read-out: β2 pEC50 (converted)
Counter-ions that a name gives are not always drawn.
REPORTED_ENDPOINT: EC50 (nM)

Solved cases (2 shown):
CCCC[C@@H](C)N(CCNCCc1ccc(O)c2c1OCC(=O)N2)C(=O)CCNCCc1cc(F)cc(Cl)c1 [Example 50, bis(trifluoroacetate)]
1.26
O=C1COc2c(CCNCCN(C(=O)CCNCCc3cc(F)ccc3F)C3CCCCCC3)ccc(O)c2N1 [Example 64, bis(trifluoroacetate)]
0.631

A: O=C1COc2c(CCNCCN(C(=O)CCNCCc3cccc(F)c3F)C3CCCCC3)ccc(O)c2N1 [Example 36, bis(trifluoroacetate)]
B: O=C1COc2c(CCNCCN(C(=O)CCOCCc3cccc(F)c3)C3CCCCC3)ccc(O)c2N1 [Example 74, trifluoroacetate]
C: C[C@H](CNCCC(=O)N(CCNCCc1ccc(O)c2[nH]c(=O)ccc12)C1CCCCCC1)c1ccccc1 [Example 9, bis(trifluoroacetate)]
D: O=C(CCNCCc1cccc(Cl)c1)N(CCNCCc1ccc(O)c2[nH]c(=O)ccc12)C1CCCCC1 [Example 13, bis(trifluoroacetate)]
Please give the order of these compounds when sorted by EC50, largest value leading. Form entry: ranked labels (order as requested).
C, D, B, A
(C: 39.8 nM, D: 7.94 nM, B: 2 nM, A: 1.26 nM)

A: O=C1COc2c(CCNCCN(C(=O)CCNCCc3cccc(Cl)c3F)C3CCCCC3)ccc(O)c2N1 [Example 39, bis(trifluoroacetate)]
B: CC[C@@H](C)N(CCNCCc1ccc(O)c2[nH]c(=O)ccc12)C(=O)CCOCCc1ccccc1.Cl [Example 79, hydrochloride]
C: Cl.O=C(CCOCCc1ccc(F)cc1)N(CCNCCc1ccc(O)c2[nH]c(=O)ccc12)C1CCCCC1 [Example 71, hydrochloride]
D: O=C(CCNCCc1cc(F)cc(F)c1)N(CCNCCc1ccc(O)c2[nH]c(=O)ccc12)C1CCCCCC1 [Example 10, bis(trifluoroacetate)]
Please give the order of these compounds when sorted by EC50, largest value leading. Form entry: ranked labels (order as requested).
B, D, C, A
(B: 50.1 nM, D: 20 nM, C: 10 nM, A: 1.58 nM)

I: CC[C@@H](C)N(CCNCCc1ccc(O)c2c1OCC(=O)N2)C(=O)CCNCCc1ccc(Cl)c(Cl)c1 [Example 58, dihydrochloride]
II: O=C(CCNCCc1cccc(-c2ccccc2)c1)N(CCNCCc1ccc(O)c2[nH]c(=O)ccc12)C1CCCCCC1 [Example 12, bis(trifluoroacetate)]
III: O=C1COc2c(CCNCCN(C(=O)CCNCCc3cc(F)cc(F)c3)C3CCCCCC3)ccc(O)c2N1 [Example 65, bis(trifluoroacetate)]
Ascending by EC50, please. Form entry: ranked labels (order as requested).
III, I, II
(III: 1.58 nM, I: 7.94 nM, II: 50.1 nM)

I: CCCC[C@@H](C)N(CCNCCc1ccc(O)c2c1OCC(=O)N2)C(=O)CCNCCc1ccc(F)c(F)c1 [Example 52, bis(trifluoroacetate)]
II: O=C(CCNCCc1ccc(Cl)cc1)N(CCNCCc1ccc(O)c2[nH]c(=O)ccc12)C1CCCCC1 [Example 14, bis(trifluoroacetate)]
When I and II are compared, which has the higher number for EC50? Give the chosen item's label as your response.
II
(II: 20 nM, I: 10 nM)

* * *

Target: recombinant human Dopamine Subtype D2s receptors (Homo sapiens, UniProt P14416)
Construct: purchased Perkin Elmer
Experiment: Dopamine D2 selectivity assay, [3H]-spiperone binding to membranes
Conditions: inhibition of [3H]-spiperone binding, read-out: D2 bind pIC50 (converted)
Procedure: Membranes containing recombinant human Dopamine Subtype D2s receptors were obtained from Perkin Elmer. […] Assays were performed in U-bottomed 96-well polypropylene plates. […] Five washes with 250 μL wash buffer (50 mM HEPES, 1 mM EDTA, 120 mM NaCl, pH 7.4) were performed at 4° C. to remove unbound radioactivity. […] The plates were sealed (TopSeal A) and filter-bound radioactivity was measured with a scintillation counter (TopCount, Packard BioScience) using a 3-minute counting protocol. […]
REPORTED_ENDPOINT: IC50 (nM)

CCOc1cccc(CCNCCC(=O)N(CCNCCc2ccc(O)c3[nH]c(=O)ccc23)C2CCCCCC2)c1 [Example 11, bis(trifluoroacetate)]
501
CCCC[C@@H](C)N(CCNCCc1ccc(O)c2c1OCC(=O)N2)C(=O)CCNCCc1cc(F)ccc1F [Example 54, bis(trifluoroacetate)]
31.6

A: Cc1cc(CCNCCC(=O)N(CCNCCc2ccc(O)c3c2OCC(=O)N3)C2CCCCCC2)ccc1F [Example 62, bis(trifluoroacetate)]
B: O=C(CCNCCc1cccc(F)c1)N(CCNCCc1ccc(O)c2[nH]c(=O)ccc12)C1CCCCCC1 [Example 5, bis(trifluoroacetate)]
# query: argmin of IC50 over A and B Give the chosen item's label as your response.
A

Data origin, for the record: patent US20100056508A1
